Please provide measured remaining activity at 10 µg for the entries that follow.
- test-target: mouse embryo RNA-polymerase II (ME-RNA-P2) (Mus musculus, UniProt P08775+Q8CFI7)
- Construct: mouse embryo RNA-polymerase II (ME-RNA-P2); endogenous in cells; host or cells: mouse embryo cells
- test-name: effect on mouse embryo RNA-polymerase II
- Type: biochemical
- conditions: 10μg; Single Stranded Calf-Thymus DNA; read-out: % Control Activity of ME-RNA-P2 at 10μg
Kindly provide the numeric value in % only, without the unit symbol.

Prompt line: Entry `CO[C@H]1/C=C/O[C@@]2(C)Oc3c(C)c(O)c4c(O)c(cc(O)c4c3C2=O)NC(=O)/C(C)=C\C=C\[C@H](C)[C@H](O)[C@@H](C)[C@@H](O)[C@@H](C)[C@H](OC(C)=O)[C@@H]1C` has what remaining activity at 10 µg?
Response line: 87

Prompt line: For the molecule shown here, `CO[C@H]1/C=C/O[C@@]2(C)Oc3c(C)c(O)c4c(c3C2=O)C(=O)C=C(NC(=O)/C(C)=C\C=C\[C@H](C)[C@H](O)[C@@H](C)[C@@H](O)[C@@H](C)[C@H](OC(C)=O)[C@@H]1C)C4=O` , give the reported remaining activity at 10 µg.
Response line: 78

Prompt line: Query (molecule): COC1C=COC2(C)Oc3c(C)c(O)c4c(O)c(cc(OCC(=O)O)c4c3C2=O)NC(=O)C(C)=CC=CC(C)C(O)C(C)C(O)C(C)C(OC(C)=O)C1C (stereo not shown) ; field requested: remaining activity at 10 µg
Response line: 102

Prompt line: Please look up its remaining activity at 10 µg: COC1C=COC2(C)Oc3c(C)c(O)c4c(c3C2=O)C2(C=C(NC(=O)C(C)=CC=CC(C)C(O)C(C)C(O)C(C)C(OC(C)=O)C1C)C4=O)OCC(=O)O2 (stereo not shown)
Response line: 93

* * *

- test-target: sarcoma virus DNA-polymerases (SSV-DNA-P) (Woolly monkey sarcoma virus, UniProt P03359)
- Construct: sarcoma virus DNA-polymerases (SSV-DNA-P)
- Sequence (P03359 642-1310): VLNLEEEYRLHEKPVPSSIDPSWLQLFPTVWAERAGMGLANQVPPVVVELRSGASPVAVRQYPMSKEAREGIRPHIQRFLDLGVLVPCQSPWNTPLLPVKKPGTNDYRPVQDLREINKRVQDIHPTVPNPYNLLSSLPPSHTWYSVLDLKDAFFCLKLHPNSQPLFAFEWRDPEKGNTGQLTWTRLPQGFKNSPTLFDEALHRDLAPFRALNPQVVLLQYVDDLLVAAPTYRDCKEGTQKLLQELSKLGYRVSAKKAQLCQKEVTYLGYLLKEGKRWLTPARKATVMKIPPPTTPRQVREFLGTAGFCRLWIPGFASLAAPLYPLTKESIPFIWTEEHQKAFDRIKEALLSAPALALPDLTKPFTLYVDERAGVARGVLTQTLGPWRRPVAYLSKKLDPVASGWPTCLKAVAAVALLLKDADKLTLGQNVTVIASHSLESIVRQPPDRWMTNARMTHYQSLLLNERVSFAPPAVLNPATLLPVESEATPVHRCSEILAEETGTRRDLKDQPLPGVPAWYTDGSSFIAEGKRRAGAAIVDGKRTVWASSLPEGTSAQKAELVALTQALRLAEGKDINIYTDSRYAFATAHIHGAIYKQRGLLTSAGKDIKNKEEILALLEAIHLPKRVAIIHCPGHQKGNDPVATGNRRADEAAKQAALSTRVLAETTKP
- test-name: effect on activity of SSV-polymerase
- Type: biochemical
- conditions: 10μg; template Oligo dT.Poly rA
- From the text: Templates used in the Enzymatic Assays were the following: SSV-DNA-P: […]
For each of the molecules below, state its % Control Activity of SSV-DNA-P at 10μg.
Kindly answer with a numeric value in %, unit omitted.

Prompt line: Look up % Control Activity of SSV-DNA-P at 10μg: COC1C=COC2(C)Oc3c(C)c(O)c4c(O)c(cc(OCC(=O)O)c4c3C2=O)NC(=O)C(C)=CC=CC(C)C(O)C(C)C(O)C(C)C(OC(C)=O)C1C (centres unmarked)
Response line: 104

Prompt line: Query (molecule): `CO[C@H]1/C=C/O[C@@]2(C)Oc3c(C)c(O)c4c(O)c(cc(O)c4c3C2=O)NC(=O)/C(C)=C\C=C\[C@H](C)[C@H](O)[C@@H](C)[C@@H](O)[C@@H](C)[C@H](OC(C)=O)[C@@H]1C` ; field requested: % Control Activity of SSV-DNA-P at 10μg
Response line: 75

Prompt line: Quick one: % Control Activity of SSV-DNA-P at 10μg for COC1C=COC2(C)Oc3c(C)c(O)c4c(c3C2=O)C2(C=C(NC(=O)C(C)=CC=CC(C)C(O)C(C)C(O)C(C)C(OC(C)=O)C1C)C4=O)OCC(=O)O2 (centres unmarked) ?
Response line: 98

Prompt line: Give its % Control Activity of SSV-DNA-P at 10μg value. Item: `CO[C@H]1/C=C/O[C@@]2(C)Oc3c(C)c(O)c4c(c3C2=O)C(=O)C=C(NC(=O)/C(C)=C\C=C\[C@H](C)[C@H](O)[C@@H](C)[C@@H](O)[C@@H](C)[C@H](OC(C)=O)[C@@H]1C)C4=O`
Response line: 108

Prompt line: Form field: reported % Control Activity of SSV-DNA-P at 10μg of COC1C=COC2(C)Oc3c(C)c(O)c4c(O)c(c(C=NNc5ccc([N+](=O)[O-])cc5[N+](=O)[O-])c(O)c4c3C2=O)NC(=O)C(C)=CC=CC(C)C(O)C(C)C(O)C(C)C(OC(C)=O)C1C (centres unmarked)
Response line: 34

* * *

- test-target: sarcoma virus DNA-polymerases (SSV-DNA-P) (Woolly monkey sarcoma virus)
- Construct: sarcoma virus DNA-polymerases (SSV-DNA-P)
- test-name: effect on activity of SSV-polymerase
- Format: biochemical
- conditions: 100μg; template Oligo dT.Poly rA
Mark each entry Satisfied if its % Control Activity of SSV-DNA-P at 100μg sits below 80%, and Not satisfied for all others.

Prompt line: I wonder whether CO[C@H]1/C=C/O[C@@]2(C)Oc3c(C)c(O)c4c(c3C2=O)C(=O)C=C(NC(=O)/C(C)=C\C=C\[C@H](C)[C@H](O)[C@@H](C)[C@@H](O)[C@@H](C)[C@H](OC(C)=O)[C@@H]1C)C4=O [rifamycin S] has % Control Activity of SSV-DNA-P at 100μg below 80%. Can you tell?
Response line: Not satisfied

Prompt line: A record lists COC1C=COC2(C)Oc3c(C)c(O)c4c(O)c(c(C=NNc5ccc([N+](=O)[O-])cc5[N+](=O)[O-])c(O)c4c3C2=O)NC(=O)C(C)=CC=CC(C)C(O)C(C)C(O)C(C)C(OC(C)=O)C1C (centres unmarked) [Example 12] . Is its % Control Activity of SSV-DNA-P at 100μg below 80%?
Response line: Satisfied

Prompt line: Hello, is % Control Activity of SSV-DNA-P at 100μg of the following compound strictly smaller than 80%? COC1C=COC2(C)Oc3c(C)c(O)c4c(O)c(cc(OCC(=O)O)c4c3C2=O)NC(=O)C(C)=CC=CC(C)C(O)C(C)C(O)C(C)C(OC(C)=O)C1C (centres unmarked) [rifamycin B]
Response line: Satisfied

Prompt line: State whether 80% exceeds % Control Activity of SSV-DNA-P at 100μg recorded for COC1C=COC2(C)Oc3c(C)c(O)c4c(c3C2=O)C2(C=C(NC(=O)C(C)=CC=CC(C)C(O)C(C)C(O)C(C)C(OC(C)=O)C1C)C4=O)OCC(=O)O2 (centres unmarked) [rifamycin O] .
Response line: Not satisfied

Prompt line: Identify whether the compound CO[C@H]1/C=C/O[C@@]2(C)Oc3c(C)c(O)c4c(O)c(cc(O)c4c3C2=O)NC(=O)/C(C)=C\C=C\[C@H](C)[C@H](O)[C@@H](C)[C@@H](O)[C@@H](C)[C@H](OC(C)=O)[C@@H]1C [rifamycin SV] records % Control Activity of SSV-DNA-P at 100μg below 80%.
Response line: Satisfied

* * *

- Tested on: mouse embryo DNA-polymerase I (ME-DNA-P1)
- test-name: effect on mouse embryo DNA-polymerase I
- Format: biochemical
- conditions: 10μg; activated Calf-Thymus DNA
measured-endpoint: % Control Activity of ME-DNA-P1 at 10μg (%)
Report the figure in % without appending any unit label.

Prompt line: Entry under review: `CO[C@H]1/C=C/O[C@@]2(C)Oc3c(C)c(O)c4c(c3C2=O)C(=O)C=C(NC(=O)/C(C)=C\C=C\[C@H](C)[C@H](O)[C@@H](C)[C@@H](O)[C@@H](C)[C@H](OC(C)=O)[C@@H]1C)C4=O` . Reported % Control Activity of ME-DNA-P1 at 10μg?
Response line: 84

Prompt line: Returns the measured % Control Activity of ME-DNA-P1 at 10μg for the input compound. Input: COC1C=COC2(C)Oc3c(C)c(O)c4c(O)c(c(C=NN5CCN(C)CC5)c(O)c4c3C2=O)NC(=O)C(C)=CC=CC(C)C(O)C(C)C(O)C(C)C(OC(C)=O)C1C (stereo not drawn)
Response line: 99

Prompt line: Returns the measured % Control Activity of ME-DNA-P1 at 10μg for the input compound. Input: COC1C=COC2(C)Oc3c(C)c(O)c4c(c3C2=O)C2(C=C(NC(=O)C(C)=CC=CC(C)C(O)C(C)C(O)C(C)C(OC(C)=O)C1C)C4=O)OCC(=O)O2 (stereo not drawn)
Response line: 92

Prompt line: Request the reported % Control Activity of ME-DNA-P1 at 10μg associated with COC1C=COC2(C)Oc3c(C)c(O)c4c(O)c(cc(OCC(=O)O)c4c3C2=O)NC(=O)C(C)=CC=CC(C)C(O)C(C)C(O)C(C)C(OC(C)=O)C1C (stereo not drawn)
Response line: 103

Prompt line: Consider the compound shown here: `CO[C@H]1/C=C/O[C@@]2(C)Oc3c(C)c(O)c4c(O)c(cc(O)c4c3C2=O)NC(=O)/C(C)=C\C=C\[C@H](C)[C@H](O)[C@@H](C)[C@@H](O)[C@@H](C)[C@H](OC(C)=O)[C@@H]1C` What is its recorded % Control Activity of ME-DNA-P1 at 10μg?
Response line: 95

Prompt line: Field request: % Control Activity of ME-DNA-P1 at 10μg | item: COC1C=COC2(C)Oc3c(C)c(O)c4c(O)c(c(C=NNc5ccc([N+](=O)[O-])cc5[N+](=O)[O-])c(O)c4c3C2=O)NC(=O)C(C)=CC=CC(C)C(O)C(C)C(O)C(C)C(OC(C)=O)C1C (stereo not drawn)
Response line: 83
